System: SK-MEL-28 melanoma
Assay: NCI-60 one-dose screen, 48 h (100 = growth as untreated, 0 = no growth, -100 = all killed)
Details: 10 µM unless noted
About 83,000 compounds went through this panel and 20% of them were active in at least one assay; those are over-represented in the sample as a whole.
Fulfilled means recorded growth is 60% or above; Not fulfilled means it is below 60%.

molecule | classification
C=C1CC[C@@H]2[C@]3(C)COC(c4ccccc4)O[C@@H]3CC[C@@]2(C)[C@@H]1C/C=C1/C(=O)OC[C@H]1O (some centres undefined) | Fulfilled
Cc1ccc2c(c1)C13C(=C2Br)CCCN1C(=O)c1ccccc13 (centres undefined) | Fulfilled
O=[N+]([O-])c1cc(/C=N/Nc2nc(N/N=C/c3ccc(Cl)c([N+](=O)[O-])c3)nc(N3CCCCC3)n2)ccc1Cl | Fulfilled
Nc1ncc(-c2ccc(NS(=O)(=O)c3ccc(Cl)c(Cl)c3)cc2)[nH]1 | Fulfilled
O=C(Nc1nc2ccc([N+](=O)[O-])cc2s1)Nc1ccccc1Cl | Not fulfilled
CCCn1cnc2c(c1=N)C(c1ccc(Cl)cc1)c1sc3c(CC)cccc3c1O2 (centres undefined) | Not fulfilled
NC(N)=Nc1ccc(Oc2cccc(Nc3cccc(C(F)(F)F)c3)c2)cn1 | Not fulfilled
C=CCOc1cccc(/C=C2\SC(=S)N(C3CC(=O)N(c4ccc(Br)cc4)C3=O)C2=O)c1 (centres undefined) | Fulfilled

Read the next record carefully.
Challenge: Can COc1ccc(-c2nc3cc(Cl)c(Cl)cc3n2CC(=O)N=Nc2c(O)[nH]c3ccc(OC)cc23)cc1 be said to have growth at or above 60%?
Response given: Not fulfilled

* * *

System: OVCAR-4 ovarian
Test: NCI-60 one-dose screen, 48 h (100 = growth as untreated, 0 = no growth, -100 = all killed)
Conditions: 10 µM unless noted
About 83,000 compounds went through this panel and 20% of them were active in at least one assay; those are over-represented in the sample as a whole.
metric-name: growth (%)
Numbers only, in %.

// known answers, use as guide
compound | unit-text | growth
N/C(=N\C(N)=N\c1nc2ccccc2s1)c1ccc2ccccc2c1 | % | 85
Nc1nc(Nc2ccccc2SSc2ccccc2Nc2nc(N)nc(-c3ccc4ccccc4c3)n2)nc(-c2ccc3ccccc3c2)n1 | % | 83.9
Cc1ccc(-n2cc(/C=C/C(=O)c3ccc(O)cc3)c(-c3ccc(S(C)(=O)=O)cc3)n2)cc1 | % | 98.7
CCNC(=O)N1CCc2cc(OC)c(OCCc3ccc(OC)cc3)cc2C1c1ccc([N+](=O)[O-])cc1C (stereo not given) | % | 54

Shift focus to the following entry.
Challenge: Quick check: growth of Cc1ccc2c(c1)Oc1nc(N)c(C#N)c(N)c1C2Sc1ccc(F)cc1 (stereo not given) ?
Response given: -99.3

* * *

For each of the compounds below, state its growth.
Tested on: COLO 205 colon
Assay: NCI-60 one-dose screen, 48 h (100 = growth as untreated, 0 = no growth, -100 = all killed)
Conditions: 10 µM unless noted
The panel holds about 83,000 compounds, 20% with a hit somewhere; the sample as a whole holds those more often. The source made the active and inactive calls. How the source made its calls: active means growth percent below 10; inactive means the rest.

compound | growth
NS(=O)(=O)c1ccc(-n2cc(CN3CCCCC3)nn2)cc1 | 119% (inactive)

Batch request: growth for each of the following compounds.
1. CCCCNNC(=O)c1ccc(-c2cccc(F)c2F)cc1
2. CCCn1cnc2c(c1=N)C(c1ccc(OC)cc1)c1sc3c(C)cccc3c1O2 (stereo not drawn)
3. Cc1occc1-c1nc2s/c(=C/c3ccc(-c4cc(C(F)(F)F)ccc4Cl)o3)c(=O)n2n1
4. COc1cc(/C=C2\C(=O)Nc3ccccc32)ccc1OCc1ccc(F)cc1
5. CC(=O)N1N=C(c2cccc(-n3cccc3)c2)CC1c1cccc(F)c1 (stereo not drawn)
6. C#C[C@]1(O)CC[C@H]2[C@@H]3CC=C4c5sc(-c6ccc(C)cc6)nc5CC[C@]4(C)[C@H]3CC[C@@]21C

Response given:
4.96% (active)
7.69% (active)
112% (inactive)
111% (inactive)
104% (inactive)
104% (inactive)

Batch request: growth for each of the following compounds.
1. O=S(=O)(Nc1ccc(I)cc1Cl)c1ccc(-c2cnc(C3CC3)o2)cc1
2. Nc1ncc(-c2ccc3ncnc(N4CCc5cc(F)c(Cl)cc54)c3c2)cn1
3. Cc1ccc(NC(=O)N[C@@H](Cc2cc(F)cc(F)c2)C(=O)NC2C(=O)N3C[C@H](O)C[C@H]3C(=O)N3CCCC[C@H]3C(=O)N[C@@H](CO)C(=O)N3C[C@H](C)C[C@H]3C(=O)O[C@H]2C)c(F)c1 (stereo partly drawn)
4. CNC(=O)c1c(NC(=O)c2cccc(C(F)(F)F)c2F)sc2c1CCC(=O)C2
5. CCc1cccc2c3c(sc12)C(c1ccc(Cl)cc1)C(C#N)=C(/N=C/c1ccc(Cl)cc1)O3 (stereo not drawn)
6. CCOc1ccc(C(=O)Nc2ncc(Cc3ccc(F)cc3)s2)cc1
7. CC(Nc1c(C#N)cnc2ccc(-c3cnc(N)nc3)cc12)c1ccccc1 (stereo not drawn)
8. Cn1cc(-c2nc(N)nnc2-c2c[nH]c3ccc(Br)cc23)c2cc(Br)ccc21

Response given:
50.2% (inactive)
39.9% (inactive)
-11.9% (active)
-6.56% (active)
16.7% (inactive)
-21.9% (active)
24% (inactive)
36.3% (inactive)

Batch request: growth for each of the following compounds.
1. O=C(NNc1nc2cc(F)ccc2n2c(CN3CCC(O)C3)ccc12)c1cnccn1 (stereo not drawn)
2. CCNC(=O)N1CCc2cc(OC)c(OCCc3ccc(OC)cc3)cc2C1c1ccc(OC)cc1C (stereo not drawn)
3. Cc1ccc2c(c1)C(=O)/C(=C/c1cccc(F)c1)S2
4. O=C1Nc2ccccc2/C1=C/c1ccc(CO)n1-c1ccc(Cl)cc1

Response given:
8.58% (active)
27.6% (inactive)
112% (inactive)
71.8% (inactive)

Batch request: growth for each of the following compounds.
1. COc1c(N2CC3CCCNC3C2)c(F)cc2c(=O)c(C(=O)N/N=C/c3ccccc3)cn(C3CC3)c12 (stereo not drawn)
2. COc1ccc(-n2c(/C=C3\C(=O)Nc4ccccc43)ccc2CO)cc1
3. Cc1ccc(CSc2nc(-c3ccc(Cl)cc3)c(C#N)c(N3CCOCC3)n2)cc1

Response given:
1: 97.5% (inactive); 2: 114% (inactive); 3: 125% (inactive)
